assay: Plasma concentration in human SUP-M2 cells xenografted SCID mouse at 30 mg/kg, po measured after 24 hrs by LC/MS analysis; format: ADME, organism-based; set-up: dose 30 mg/kg, route oral
Measured property: concentration at 24 h

Inquiry: # query: concentration at 24 h of entry COc1cc(N2CCN(C[C@H](C)O)CC2)ccc1Nc1ncc2ccc(-c3ccccc3N(C)S(C)(=O)=O)n2n1
Reply text: < 10 ng/mL

---

Hi there, I'd appreciate the recorded IC50 for every entry that follows.
biological target: NPM/ALK (Nucleophosmin/ALK tyrosine kinase receptor) (Homo sapiens, UniProt Q9UM73); assay: Inhibition of NPM/ALK phosphorylation in human KARPAS299 cells by ELISA
Sequence (Q9UM73 whole entry): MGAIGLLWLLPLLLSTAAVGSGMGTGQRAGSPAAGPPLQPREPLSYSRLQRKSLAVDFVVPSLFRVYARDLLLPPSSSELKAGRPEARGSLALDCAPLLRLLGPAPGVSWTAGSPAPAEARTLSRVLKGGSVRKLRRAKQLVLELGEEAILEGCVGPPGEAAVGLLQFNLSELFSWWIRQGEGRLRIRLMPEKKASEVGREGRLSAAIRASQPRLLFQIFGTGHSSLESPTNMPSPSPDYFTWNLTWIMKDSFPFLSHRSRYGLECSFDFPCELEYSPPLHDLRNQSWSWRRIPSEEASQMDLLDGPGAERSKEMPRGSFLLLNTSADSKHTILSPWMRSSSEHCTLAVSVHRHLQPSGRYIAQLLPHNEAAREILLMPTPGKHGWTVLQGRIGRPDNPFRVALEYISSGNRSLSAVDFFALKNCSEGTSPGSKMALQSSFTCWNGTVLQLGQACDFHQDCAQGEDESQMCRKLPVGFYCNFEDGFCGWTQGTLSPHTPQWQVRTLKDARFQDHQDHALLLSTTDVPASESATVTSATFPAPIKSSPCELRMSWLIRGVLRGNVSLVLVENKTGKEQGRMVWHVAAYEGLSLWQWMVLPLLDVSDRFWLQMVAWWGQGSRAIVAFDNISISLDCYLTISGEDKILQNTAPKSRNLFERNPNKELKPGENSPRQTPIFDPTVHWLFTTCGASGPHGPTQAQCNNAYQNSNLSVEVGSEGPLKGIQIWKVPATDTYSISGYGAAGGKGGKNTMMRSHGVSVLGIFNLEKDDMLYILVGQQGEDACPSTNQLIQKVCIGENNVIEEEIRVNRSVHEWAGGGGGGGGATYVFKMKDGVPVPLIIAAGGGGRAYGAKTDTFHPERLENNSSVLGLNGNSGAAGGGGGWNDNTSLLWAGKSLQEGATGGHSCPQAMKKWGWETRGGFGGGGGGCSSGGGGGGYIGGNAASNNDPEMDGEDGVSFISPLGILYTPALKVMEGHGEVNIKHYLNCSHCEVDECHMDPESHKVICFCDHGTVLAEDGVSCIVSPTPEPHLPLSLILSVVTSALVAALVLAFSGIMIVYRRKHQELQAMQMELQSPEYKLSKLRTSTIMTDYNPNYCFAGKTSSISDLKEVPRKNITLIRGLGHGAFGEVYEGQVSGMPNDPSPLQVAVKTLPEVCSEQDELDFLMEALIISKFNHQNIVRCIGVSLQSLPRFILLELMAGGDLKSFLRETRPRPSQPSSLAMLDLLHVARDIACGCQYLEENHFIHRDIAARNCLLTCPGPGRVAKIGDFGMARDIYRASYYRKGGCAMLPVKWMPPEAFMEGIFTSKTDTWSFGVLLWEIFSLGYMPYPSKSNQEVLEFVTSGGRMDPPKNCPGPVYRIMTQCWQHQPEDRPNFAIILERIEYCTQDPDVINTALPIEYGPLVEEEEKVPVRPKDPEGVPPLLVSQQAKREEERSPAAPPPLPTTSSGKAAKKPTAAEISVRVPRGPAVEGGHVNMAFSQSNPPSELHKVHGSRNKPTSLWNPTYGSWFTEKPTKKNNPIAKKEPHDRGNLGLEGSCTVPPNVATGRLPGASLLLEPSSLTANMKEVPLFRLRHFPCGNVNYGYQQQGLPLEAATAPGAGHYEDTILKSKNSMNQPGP
Sequence (P06748 whole entry, further chain): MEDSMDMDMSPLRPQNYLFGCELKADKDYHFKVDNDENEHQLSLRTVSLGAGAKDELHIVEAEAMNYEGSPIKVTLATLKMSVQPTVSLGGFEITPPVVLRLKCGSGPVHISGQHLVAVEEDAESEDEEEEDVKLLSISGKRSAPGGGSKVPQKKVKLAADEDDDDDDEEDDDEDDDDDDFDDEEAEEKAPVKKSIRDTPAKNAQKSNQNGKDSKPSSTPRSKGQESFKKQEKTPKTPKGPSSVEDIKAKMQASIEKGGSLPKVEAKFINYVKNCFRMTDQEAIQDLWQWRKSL
Please make sure the unit comes right after the number.

Below, each entry is followed by its recorded IC50 result.
Substance smiles	Measured property	Measured value
COc1cc(N2CCN(N3CCOCC3)CC2)ccc1Nc1ncc2ccc(-c3ccccc3OC)n2n1	IC50	85 nM
COc1cc(N2CCN(C)CC2)ccc1Nc1ncc2ccc(-c3ccccc3N(C)S(C)(=O)=O)n2n1	IC50	200 nM
COc1cc(N2CCC(N3CCOCC3)CC2)ccc1Nc1ncc2ccc(-c3ccccc3N(C)S(C)(=O)=O)n2n1	IC50	50 nM
COc1cc(N2CCN(C[C@@H](C)O)CC2)ccc1Nc1ncc2ccc(-c3ccccc3OC)n2n1	IC50	80 nM
COc1cc(N2CCN(C[C@H](C)O)CC2)ccc1Nc1ncc2ccc(-c3ccccc3OC)n2n1	IC50	100 nM

We now examine a further compound.
Inquiry: # query: IC50 of entry COc1cc(N2CCN(C)CC2)ccc1Nc1ncc2ccc(-c3ccccc3OC)n2n1
Reply text: 100 nM

---

molecular target: ALK tyrosine kinase receptor (Homo sapiens); assay: Inhibition of human recombinant ALK assessed as phosphorylated product using PLC-gamma/GST substrate by modified ELISA method
Sequence (Q9UM73 whole entry): as the sequence (Q9UM73 whole entry) above
pIC50: −log10 of the molar value.
param class (str): category from pIC50; see ranges low group: < 7; middle group: ≥ 7 and < 8; high group: ≥ 8

Inquiry: In plain terms, what class is COc1cc(Nc2ncc3ccc(-c4ccccc4)n3n2)cc(OC)c1OC ?
Reply text: low group

Inquiry: Next record, please: COc1cc(N2CCN(C[C@H](C)O)CC2)ccc1Nc1ncc2ccc(-c3ccccc3OC)n2n1
Reply text: high group

Inquiry: Next record, please: CN1CCN(c2ccc(Nc3ncc4ccc(-c5ccccc5NS(C)(=O)=O)n4n3)cc2)CC1
Reply text: low group

Inquiry: Next record, please: CN1CCN(c2ccc(Nc3ncc4ccc(-c5ccccc5S(C)(=O)=O)n4n3)cc2)CC1
Reply text: low group

Inquiry: Next record, please: COc1ccccc1-c1ccc2cnc(Nc3ccc(N4CCN(C)CC4)cc3)nn12
Reply text: middle group

Inquiry: Next record, please: COc1cc(N2CCN(C[C@@H](C)O)CC2)ccc1Nc1ncc2ccc(-c3ccccc3OC)n2n1
Reply text: high group

---

Protein target, amino acids: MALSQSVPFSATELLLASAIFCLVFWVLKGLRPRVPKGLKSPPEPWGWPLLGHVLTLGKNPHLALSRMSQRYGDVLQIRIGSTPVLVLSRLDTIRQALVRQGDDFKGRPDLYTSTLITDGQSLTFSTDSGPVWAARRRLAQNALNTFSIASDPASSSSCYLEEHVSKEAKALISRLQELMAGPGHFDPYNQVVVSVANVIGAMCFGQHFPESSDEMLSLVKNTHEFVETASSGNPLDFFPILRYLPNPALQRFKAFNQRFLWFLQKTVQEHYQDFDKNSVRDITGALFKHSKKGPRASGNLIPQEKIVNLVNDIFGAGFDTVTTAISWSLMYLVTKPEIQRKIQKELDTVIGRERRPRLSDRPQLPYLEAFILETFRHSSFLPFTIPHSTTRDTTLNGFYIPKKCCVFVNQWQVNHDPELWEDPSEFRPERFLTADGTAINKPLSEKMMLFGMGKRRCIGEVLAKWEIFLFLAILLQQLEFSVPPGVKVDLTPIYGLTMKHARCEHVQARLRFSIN
Measured property: IC50

Inquiry: # query: IC50 of entry COc1ccccc1-c1ccc2cnc(Nc3ccc(N4CCN(C)CC4)cc3)nn12
Reply text: > 30 µM

Measured values drawn from ChEMBL document CHEMBL1821719 for this set.
